Source listed as patent US20260193366A1.

system: T1, hIL-4Rα on cells (human, UniProt P24394 26-825)
T1 sequence: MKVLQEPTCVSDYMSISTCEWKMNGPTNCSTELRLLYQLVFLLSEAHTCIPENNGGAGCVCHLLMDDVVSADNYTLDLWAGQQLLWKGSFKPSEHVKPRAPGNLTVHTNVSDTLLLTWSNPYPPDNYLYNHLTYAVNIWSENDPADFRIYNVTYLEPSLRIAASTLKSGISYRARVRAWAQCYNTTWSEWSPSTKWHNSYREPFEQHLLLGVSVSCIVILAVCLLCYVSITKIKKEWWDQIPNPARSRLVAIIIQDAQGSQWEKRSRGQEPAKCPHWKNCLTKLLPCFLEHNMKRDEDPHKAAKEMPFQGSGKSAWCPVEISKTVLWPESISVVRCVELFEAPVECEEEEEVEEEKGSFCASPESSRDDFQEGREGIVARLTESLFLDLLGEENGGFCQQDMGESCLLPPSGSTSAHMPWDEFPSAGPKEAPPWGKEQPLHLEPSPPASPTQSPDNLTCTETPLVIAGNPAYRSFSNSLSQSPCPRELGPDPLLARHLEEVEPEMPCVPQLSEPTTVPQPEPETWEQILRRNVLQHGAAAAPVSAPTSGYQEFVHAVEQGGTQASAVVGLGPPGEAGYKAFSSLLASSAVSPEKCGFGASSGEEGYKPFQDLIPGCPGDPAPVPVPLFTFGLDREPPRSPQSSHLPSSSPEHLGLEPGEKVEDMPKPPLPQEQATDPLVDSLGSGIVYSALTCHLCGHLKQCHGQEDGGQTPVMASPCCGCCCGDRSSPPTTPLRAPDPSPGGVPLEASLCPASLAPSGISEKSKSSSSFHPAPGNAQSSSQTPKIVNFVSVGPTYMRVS
method_description: cell-based or functional assay
Quick reference for Relative Inhibition of IL-13 induced pSTAT6 IC50 among some binders

binder: Construct 33 (mAb450) (antibody, IgG4, V domains shown, VH/VL only) VH: EVQLVESGGGLEQPGGSLRLSCAGSGFTFRDFAMTWVRQAPGKGLEWVSSISGSGGNIYYADSVKGRFTISRDNSKNTLYLQMNSLRAEDTAVYYCAKDRVSITIRPRYYGLDVWGQGTTVTVSS VL: DIVMTQSPLSLPVTPGEPASISCTASQSLLYSIGYNYVDWYLQKSGQSPQLLIYLGSKRASGVPDRFSGSGSGTDFTLKISRVEAEDVGFYYCMQALGSPYTFGQGTKLEIK
result: 1.59 relative to dupilumab

binder: Construct 39 (mAb473) (antibody, IgG4, V domains shown, VH/VL only) VH: EVQLVESGGGLEQPGGSLRLSCAGSGFTFRDSAMTWVRQAPGKGLEWVSSISGSGDNTYYADSVKGRFTISRDNSKNTLYLQMNSLRAEDTAVYYCAKDRLSITVRPRYYGLDVWGQGTTVTVSS VL: DIVMTQSPLSLPVTPGEPASISCRSSQSLLYSIGKNYVDWYLQKSGQSPQLLIYLGNKRASGVPDRFSGSGSGTDFTLKISRVEAEDVGFYYCMQALGSPYTFGQGTKLEIK
result: 2.17 relative to dupilumab

Next item in the queue.
Recorded Relative Inhibition of IL-13 induced pSTAT6 IC50 (binder Construct 34 (mAb459) (antibody, IgG4, V domains shown, VH/VL only) VH: EVQLVESGGGLEQPGGSLRLSCAGSGFTFRDFAMTWVRQAPGKGLEWVSSISGSGDNIYYADSVKGRFTISRDNSKNTLYLQMNSLRAEDTAVYYCAKDRLSKTIRPRYYGLDVWGQGTTVTVSS VL: DIVMTQSPLSLPVTPGEPASISCRSSQGLLYSIGYNYVDWYLQKSGQSPQLLIYLGNKRASGVPDRFSGSGSGTDFTLKISRVEAEDVGFYYCMQALDTPYTFGQGTKLEIK ): 2.42 relative to dupilumab
